- Target Desc: Cyclin-dependent kinase 2 (Homo sapiens, UniProt P24941)
- Assay Details: Binding affinity to CDK2 allosteric site (unknown origin)
Measure Name: IC50

Q: Lab request: please report IC50 under test system Cyclin-dependent kinase 2 (Homo sapiens, UniProt P24941) for Cc1[nH]c2c(c1C1(C)NC3=C(C(=O)CC(c4ccccc4)C3)C1=O)C(=O)CC(c1ccccc1)C2 (stereo unspecified)
Ans: > 91 µM
